Test system: Jurkat human leukemia T cells
methodDescription: Inhibition of Jurkat human leukemia T cell proliferation (MTT reduction)
Format: cell-based
conditionParameters: 100 μg/ml sequence, 48 h, 2.5×10^5 cells/ml
Experimental: Cells were seeded in 6 (1 ml/well), 24 (0.5 ml/well) or 96 (0.1 ml/well) well flat-bottom microplates and were maintained at 37° C. in a 5% CO2 atmosphere. Unless stated otherwise, 2.5×10^5 cells/ml were incubated with 0 μg/ml (control) and 100 μg/ml (treated) of 2 to 45 base sequences containing A, C, G and T for 48 h. MTT was measured at a wavelength of 570 nm using a multiplate spectrophotometer reader (ELX800, Bio-TEK Instruments Inc., Winooski, Vt.). […]
Measured % INHIBITION of Jurkat human leukemia T cell proliferation, listed per entry for reference.
readoutType: % INHIBITION of Jurkat human leukemia T cell proliferation (%)

| substance | measuredOn | observedMeasurement |
| --- | --- | --- |
| GAGTGA [SEQ ID NO:32] | Jurkat human leukemia T cells | 24 |
| TGTGTGTGTGTGTGTGTGTGTGTGTG (DNA TGTGTGTGTGTGTGTGTGTGTGTGTGT; unmodified DNA) [SEQ ID NO:5] | Jurkat human leukemia T cells | 45 |
| TGTGTGTGTGTG [SEQ ID NO:13] | Jurkat human leukemia T cells | 49 |
| GTGTGTGTGTGTGTGTGTGTGTGT [SEQ ID NO:22] | Jurkat human leukemia T cells | 56 |
| GTGTGTGTGTGTGTG (unmodified DNA) [SEQ ID NO:16] | Jurkat human leukemia T cells | 58 |
| TTGTGG [SEQ ID NO:39] | Jurkat human leukemia T cells | 35 |
| GoGoGoTsGoGo | Jurkat human leukemia T cells | 12 |
| TGGTTG [SEQ ID NO:29] | Jurkat human leukemia T cells | 42 |
| GTGTGTGTG (chemistry not given here) [SEQ ID NO:12] | Jurkat human leukemia T cells | 47 |
| AAAAGAAGTGGGGTGCCCCCACGATCACCAACGATGGTGTGTCCA (unmodified DNA) [BCG A-2, reference compound] | Jurkat human leukemia T cells | 19 |
| GGGTCT [SEQ ID NO:33] | Jurkat human leukemia T cells | 15 |
| GGTGGG [SEQ ID NO:24 phosphorothioate] | Jurkat human leukemia T cells | 6 |
| GGGTGGGGGTGGGGGTGGGGGTGG (unmodified DNA) [SEQ ID NO:70] | Jurkat human leukemia T cells | 13 |
| CCGTGG [SEQ ID NO:34] | Jurkat human leukemia T cells | 37 |
| TCGTTC [SEQ ID NO:37] | Jurkat human leukemia T cells | 20 |
| GoGoGsToGoGo | Jurkat human leukemia T cells | 17 |
| GGGTGGT (unmodified DNA) [SEQ ID NO:65] | Jurkat human leukemia T cells | 48 |
| CCGTCC [SEQ ID NO:28] | Jurkat human leukemia T cells | 11 |
| GGGCGG (unmodified DNA) [SEQ ID NO:46] | Jurkat human leukemia T cells | 23 |
| GTGTGTTTGGT (unmodified DNA) [SEQ ID NO:81] | Jurkat human leukemia T cells | 22 |
| AAGTAA [SEQ ID NO:27] | Jurkat human leukemia T cells | 13 |
| TGTGTGTGTGTGTGTGTGTGT (unmodified DNA) [SEQ ID NO:19] | Jurkat human leukemia T cells | 60 |
| TTGTTT [SEQ ID NO:26 phosphorothioate] | Jurkat human leukemia T cells | 0 |
| GGGGGTGGGGGTGGGGGTGGGGGTGGG (unmodified DNA) [SEQ ID NO:3] | Jurkat human leukemia T cells | 24 |
